Tested on: C. elegans RB2119 (acr-23(ok2804), monepantel-resistant)
runDescription: IC50 on amino-acetonitrile resistant C. elegans strain
Format: in vivo, Caenorhabditis elegans
experimentalConditions: 5 days exposure, 2 L4 per well, three biological replicates; read-out: IC50, strain RB2119 (amino-acetonitriles)
valueType: IC50 (nM)
Field: numeric (nM). Do not append units.

Q. State, in one line, measured IC50 of FC(F)(F)c1cc(NCc2ccccc2)nc(-c2ccccc2)n1
A. 2000

----------
System: C. elegans RB2119 (acr-23(ok2804), monepantel-resistant)
runDescription: IC50 on amino-acetonitrile resistant C. elegans strain
Type: in vivo, Caenorhabditis elegans
experimentalConditions: Caenorhabditis elegans, 120 h; 5 days exposure, 2 L4 per well, three biological replicates; read-out: IC50, strain RB2119 (amino-acetonitriles)
Quick list: IC50 per entry.

Examples with answers:
- itemSmiles: "c1ccc([C@H]2CN3CCSC3=N2)cc1"
  IC50: "4 µM"
- itemSmiles: "COc1ccc(OCCNC(=O)c2ccccc2C(F)(F)F)cc1"
  IC50: "5 µM"

Now examine the next entry.
Q. State, in one line, measured IC50 of c1ccc2[nH]cnc2c1
A. 28 µM

----------
System: C. elegans CB3474 (ben-1(e1880), benomyl resistant)
runDescription: IC50 on benzimidazole resistant C. elegans strain
Type: in vivo, Caenorhabditis elegans
experimentalConditions: 5 days exposure, 2 L4 per well, three biological replicates
valueType: IC50 (nM)
Field: numeric (nM). Do not append units.

Q. State, in one line, measured IC50 of FC(F)(F)c1cc(NCc2ccccc2)nc(-c2ccccc2)n1 [CID 796072]
A. 2000

----------
System: C. elegans DA1316 (avr-14(ad1302); avr-15(vu227); glc-1(pk54), ivermectin resistant)
runDescription: IC50 on ivermectin resistant C. elegans strain
Type: in vivo, Caenorhabditis elegans
experimentalConditions: 5 days exposure, 2 L4 per well, three biological replicates
valueType: pIC50
The read-out pIC50 is expressed as -log10 of concentration in moles per litre.

Q. State, in one line, measured pIC50 of FC(F)(F)c1cc(NCc2ccccc2)nc(-c2ccccc2)n1
A. 5.10

----------
System: Human embryonic kidney (HEK293) cells
runDescription: HEK293 viability, MTT colorimetric assay
Format: cell-based
experimentalConditions: Homo sapiens, read-out: Mammalian IC50
Quick list: pIC50 per entry.
The read-out pIC50 is expressed as -log10 of concentration in moles per litre.

Examples with answers:
- molecule: "O=C(NCCc1ncc(C(F)(F)F)cc1Cl)c1ccccc1C(F)(F)F [Fluopyram, reference compound]"
  pIC50: 3.52
- molecule: "COc1ccc(OCCNC(=O)c2ccccc2C(F)(F)F)cc1"
  pIC50: 3.77
- molecule: "COc1ccc(OCCNC(=O)c2c(F)cccc2Cl)cc1"
  pIC50: 3.72

Q. State, in one line, measured pIC50 of CCCCNC(=O)n1c(NC(=O)OC)nc2ccccc21 [Benomyl, reference compound]
A. 5.10

----------
Test system: C. briggsae
runDescription: Dosage curve on C. briggsae
Type: in vivo
experimentalConditions: Caenorhabditis briggsae, 120 h; two L4 per well, five days of exposure
valueType: IC50
Respond with the figure and its unit, in that order.

Q. State, in one line, measured IC50 of COc1ccc(OCCNC(=O)c2ccccc2C(F)(F)F)cc1 [CID 2747322]
A. 16 µM

All values here come from paper PMC5068747.
